PROPERTY_NAME: melting point (°C)

(I) Cc1cc(-c2ccc(Cl)cc2)nc(-c2nc(-c3ccc(S(N)(=O)=O)cc3)no2)n1 [Example 136]
(II) Cc1cc(-c2ccc(C(F)(F)F)cc2)nc(-c2cccc(-c3ccc(S(=O)(=O)NC(C)(C)C)s3)c2)c1 [Example 272]
Lookup: Which has the higher melting point, I or II ? Give the label of your selection.
Found: I
(I: 297 °C, II: 156 °C)

----------
PROPERTY_NAME: melting point (°C)

compound="NS(=O)(=O)c1cccc(-c2noc(-c3nc(-c4ccc(C(F)(F)F)cc4)cc(C(F)F)n3)n2)c1 [Example 40]" measurement_unit=°C assay_value=217.5
compound="Cc1cc(-c2ccc(C(F)(F)F)cc2)nc(-c2nc(-c3ccc(N)nc3)no2)n1 [Example 127]" measurement_unit=°C assay_value=216.5
compound="Cc1cc(-c2ccc(C(F)(F)F)c(C)c2)nc(-n2cnc(-c3cnc(N)nc3)c2)n1 [Example 123]" measurement_unit=°C assay_value=248
